Biological target: Peroxisome proliferator-activated receptor delta (Homo sapiens)
Sequence (Q03181 whole entry): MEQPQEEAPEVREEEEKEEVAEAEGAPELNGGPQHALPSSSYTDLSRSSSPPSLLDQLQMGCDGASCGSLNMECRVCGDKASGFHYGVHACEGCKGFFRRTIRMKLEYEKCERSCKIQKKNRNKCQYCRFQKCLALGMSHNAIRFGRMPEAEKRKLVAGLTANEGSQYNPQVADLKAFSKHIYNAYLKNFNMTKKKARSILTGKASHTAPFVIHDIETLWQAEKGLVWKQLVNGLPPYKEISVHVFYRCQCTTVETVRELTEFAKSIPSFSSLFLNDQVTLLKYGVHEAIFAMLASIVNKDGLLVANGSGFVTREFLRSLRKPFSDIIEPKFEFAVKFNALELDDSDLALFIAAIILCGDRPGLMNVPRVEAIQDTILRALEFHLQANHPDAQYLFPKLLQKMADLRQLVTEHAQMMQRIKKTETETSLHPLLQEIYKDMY
Experiment: Agonist activity at human PPARdelta measured by dual luciferase reporter gene assay
Consider the following molecules; for each one, report its pEC50.
Numbers only, as −log10 of the molar value.

Examples with answers:
> print(dat)
                      smiles.representation                              assay.system  measured.result
1  COc1ccc(/C=C/c2cc(OC)cc(OCCCCCCCC(=O)O)c2)cc1  Peroxisome proliferator-activated receptor delta (Homo sapiens)             5.19
2  COc1ccc(/C=C/c2cc(OC)cc(OCc3ccc(OCC(=O)O)c(C)c3)c2)cc1  Peroxisome proliferator-activated receptor delta (Homo sapiens)             5.29
3  COc1ccc(/C=C/c2cc(OC)cc(OCc3ccc(OC(C)(C)C(=O)O)c(F)c3)c2)cc1  Peroxisome proliferator-activated receptor delta (Homo sapiens)             5.55
4  O=C(O)COc1ccc(COc2cccc(-c3nc4ccccc4s3)c2)cc1F  Peroxisome proliferator-activated receptor delta (Homo sapiens)             4.99

Report pEC50 for each item below.
1. CCOc1ccc(/C=C/c2cc(OCC)cc(OCc3ccc(OCC(=O)O)c(F)c3)c2)cc1
2. COc1ccc2cc(-c3cccc(OCc4ccc(OCC(=O)O)c(F)c4)c3)ccc2c1
3. COc1ccc(/C=C/c2cc(OC)cc(OCc3ccc(OCC(=O)O)c(F)c3)c2)cc1
4. O=C(O)COc1ccc(COc2cccc(-c3ccc4cc(OCC5CC5)ccc4c3)c2)cc1F
5. O=C(O)COc1ccc(COc2cc(/C=C/c3ccc(OCC4CC4)cc3)cc(OCC3CC3)c2)cc1F

Result block:
1: 5.24; 2: 5.11; 3: 5.32; 4: 5.14; 5: 5.08
